# System: human primary acute myeloid leukemia cells
# assay name: Effect of single added factors in Basal Medium on proliferation (CCK-8)
# Type: cell-based
# reported conditions: additive at the listed final concentration in Basal Medium; samples A17007, A25104; 5 to 8 days; CCK-8, 450 nm; versus Basal Medium
readout label: Level of promoting cell proliferation

| molecule | Level of promoting cell proliferation |
| --- | --- |
| human interleukin-11 (protein, UniProt P20809 22-199, looked up, cytokine additive from Sino Biological) Interleukin-11: PGPPPGPPRVSPDPRAELDSTVLLTRSLLADTRQLAAQLRDKFPADGDHNLDSLPTLAMSAGALGALQLPGVLTRLRADLLSYLRHVQWLRRAGGSSLKTLEPELGTLQARLDRLLRRLQLLMSRLALPQPPPDPPAPPLAPPSSAWGGIRAAHAILGGLHLTLDWAVRGLLLLKTRL | − |
| human interleukin-10 (protein, UniProt P22301 19-178, looked up, cytokine additive from Sino Biological) Interleukin-10: SPGQGTQSENSCTHFPGNLPNMLRDLRDAFSRVKTFFQMKDQLDNLLLKESLLEDFKGYLGCQALSEMIQFYLEEVMPQAENQDPDIKAHVNSLGENLKTLRLRLRRCHRFLPCENKSKAVEQVKNAFNKLQEKGIYKAMSEFDIFINYIEAYMTMKIRN | − |
| human interleukin-22 (protein, UniProt Q9GZX6 34-179, looked up, cytokine additive from Peprotech) Interleukin-22: APISSHCRLDKSNFQQPYITNRTFMLAKEASLADNNTDVRLIGEKLFHGVSMSERCYLMKQVLNFTLEEVLFPQSDRFQPYMQEVVPFLARLSNRLSTCHIEGDDLHIQRNVQKLKDTVKKLGESGEIKAIGELDLLFMSLRNACI | − |
| recombinant human FLT3 Ligand (protein, UniProt P49771 27-235, looked up, growth factor additive from Sino Biological) Fms-related tyrosine kinase 3 …: TQDCSFQHSPISSDFAVKIRELSDYLLQDYPVTVASNLQDEELCGGLWRLVLAQRWMERLKTVAGSKMQGLLERVNTEIHFVTKCAFQPPPSCLRFVQTNISRLLQETSEQLVALKPWITRQNFSRCLELQCQPDSSTLPPPWSPRPLEATAPTAPQPPLLLLLLLPVGLLLLAAAWCLHWQRTRRRTPRPGEQVPPVPSPQDLLLVEH | + |
| human interleukin-4 (protein, UniProt P05112 25-153, looked up, cytokine additive from Sino Biological) Interleukin-4: HKCDITLQEIIKTLNSLTEQKTLCTELTVTDIFAASKNTTEKETFCRAATVLRQFYSHHEKDTRCLGATAQQFHRHKQLIRFLKRLDRNLWGLAGLNSCPVKEANQSTLENFLERLKTIMREKYSKCSS | − |

API: the following record is the query input.
get_value(item= human granulocyte colony stimulating factor (protein, UniProt P09919 31-207, looked up, growth factor additive from Sino Biological) Granulocyte …: TPLGPASSLPQSFLLKCLEQVRKIQGDGAALQEKLVSECATYKLCHPEELVLLGHSLGIPWAPLSSCPSQALQLAGCLSQLHSGLFLYQGLLQALEGISPELGPTLDTLQLDVADFATTIWQQMEELGMAPALQPTQGAMPAFASAFQRRAGGVLVASHLQSFLEVSYRVLRHLAQP , readout=Level of promoting cell proliferation) returns −
